Test system: phosphorylation of Histone H3
assay_notes: HeLa cell 1-hour phospho-histone assay
Assay type: cell-based
details: Homo sapiens, HeLa, 1 h, HeLa cells, 1 hour; average; given as class symbols; read-out: pHH3 EC50_IP (Avg)
pEC50: −log10 of the molar value.
property_label: pEC50

- CN1CCN(CCCNc2nccc(-c3cccnc3Oc3ccc(Nc4nnc(-c5ccccc5)c5ccccc45)cc3)n2)CC1 [compound 333]: ≥ 7.00
- Nc1nccc(-c2cccnc2Oc2ccc(Nc3nnc(-c4ccccc4)cc3-c3ccccc3)cc2)n1 [compound 246]: 5.60 to 6.30
- Cc1n[nH]cc1-c1cccnc1Oc1ccc(Nc2nnc(-c3ccccc3)c3ccccc23)cc1 [compound 300]: 6.30 to 7.00
- Nc1nccc(-c2cccnc2Oc2ccc(Nc3nnc(-c4cccc(CO)c4)c4ccccc34)cc2)n1 [compound 342]: 6.30 to 7.00
- Cc1cc(-c2ccccc2)nnc1Nc1ccc(Oc2ncccc2-c2ccnc(N)c2)cc1 [compound 418]: 6.30 to 7.00

# map each compound to its pEC50
1. Nc1n[nH]cc1-c1cccnc1Oc1ccc(Nc2nnc(-c3cccc(CO)c3)c3ccccc23)cc1 [compound 305]
2. CCN(CC)CCCNc1nccc(-c2cccnc2Oc2ccc(Nc3nnc(-c4ccccc4)cc3C)cc2)n1 [compound 426]
3. Cc1cc(-c2ccccc2)nnc1Nc1ccc(Oc2ncccc2-c2ccnc(NCCCN3CCCC3)n2)cc1 [compound 425]
4. Cc1cc(-c2ccccc2)nnc1Nc1ccc(Oc2ncccc2-c2c[nH]nc2N)cc1 [compound 302]

5.60 to 6.30
6.30 to 7.00
6.30 to 7.00
5.60 to 6.30

# map each compound to its pEC50
1. CN(C)Cc1ccc(-c2nnc(Nc3ccc(Oc4ncccc4-c4ccnc(N)n4)cc3)c3ccccc23)cc1 [compound 336]
2. c1ccc(-c2nnc(Nc3ccc(Oc4ncccc4-c4ccnc(NCC5CCNCC5)n4)cc3)c3ccccc23)cc1 [compound 335]
3. O=C(O)CCCNc1nccc(-c2cccnc2Oc2ccc(Nc3nnc(-c4ccccc4)c4ccccc34)cc2)n1 [compound 427]
4. Nc1n[nH]cc1-c1cccnc1Oc1ccc(Nc2nnc(-c3ccccc3)c3c2CCCC3)cc1 [compound 308]
5. OCCN(CCO)CCCNc1nccc(-c2cccnc2Oc2ccc(Nc3nnc(-c4ccccc4)c4ccccc34)cc2)n1 [compound 341]
6. Nc1nccc(-c2cccnc2Oc2ccc(Nc3nnc(-c4ccccc4)cc3C(=O)O)cc2)n1 [compound 433]

5.60 to 6.30
5.60 to 6.30
5.60 to 6.30
5.60 to 6.30
6.30 to 7.00
5.60 to 6.30

All figures here come from patent EP1984353B1.
